Data origin: patent US20070293666A1

# test method notes: Absorption spectrum in chloroform (maximum absorption wavelength, gram absorption coefficient, 550/525 nm coefficient ratio)
# Assay type: physicochemical
# experimental parameters: chloroform solvent
reported metric: Maximum Absorption Wavelength (nm)
Express your answer in nm, writing the number without its unit.

Use these answered entries as a reference point.
CCCCCOc1ccc(C2=c3nc(c4c5cccc6cccc(c3=4)c65)C(c3ccc(OCCCCC)cc3)=c3c4c(c5[n]3[Cu][n]3c2c2c(c3C(c3ccc(OCCCCC)cc3)=c3nc(c6c7cccc8cccc(c3=6)c87)C=5c3ccc(OCCCCC)cc3)-c3cccc5cccc-2c35)-c2cccc3cccc-4c23)cc1: 553
CCCCCCCCCCOc1ccc(C2=c3nc(c4c5ccc(Cl)c6c(Cl)ccc(c3=4)c65)C(c3ccc(OCCCCCCCCCC)cc3)=c3c4c(c5[n]3[Ni][n]3c2c2c(c3C(c3ccc(OCCCCCCCCCC)cc3)=c3nc(c6c7ccc(Cl)c8c(Cl)ccc(c3=6)c87)C=5c3ccc(OCCCCCCCCCC)cc3)-c3ccc(Cl)c5c(Cl)ccc-2c35)-c2ccc(Cl)c3c(Cl)ccc-4c23)cc1: 552

Query block: Look up Maximum Absorption Wavelength: CC(C)(C)c1ccc(C2=c3nc(c4c5cccc6cccc(c3=4)c65)C(c3ccc(C(C)(C)C)cc3)=c3c4c(c5[n]3[Cu][n]3c2c2c(c3C(c3ccc(C(C)(C)C)cc3)=c3nc(c6c7cccc8cccc(c3=6)c87)C=5c3ccc(C(C)(C)C)cc3)-c3cccc5cccc-2c35)-c2cccc3cccc-4c23)cc1
Result block: 546

----------
Readings of Maximum Absorption Wavelength for the listed molecules
# test method notes: Absorption spectrum in chloroform (maximum absorption wavelength, gram absorption coefficient, 550/525 nm coefficient ratio)
# Format: physicochemical
# experimental parameters: chloroform solvent
Report the figure in nm without appending any unit label.

CCCCCCOc1ccc(C2=c3nc(c4c5cccc6cccc(c3=4)c65)C(c3ccc(OCCCCCC)cc3)=c3c4c(c5[n]3[Cu][n]3c2c2c(c3C(c3ccc(OCCCCCC)cc3)=c3nc(c6c7cccc8cccc(c3=6)c87)C=5c3ccc(OCCCCCC)cc3)-c3cccc5cccc-2c35)-c2cccc3cccc-4c23)cc1: 553

Please turn your attention to the following entry.
Query block: What value of Maximum Absorption Wavelength has been reported for the following molecule? CCCCCCCCCCOc1ccc(C2=c3nc(c4c5cccc6cccc(c3=4)c65)C(c3ccc(OCCCCCCCCCC)cc3)=c3c4c(c5[n]3[Ni][n]3c2c2c(c3C(c3ccc(OCCCCCCCCCC)cc3)=c3nc(c6c7cccc8cccc(c3=6)c87)C=5c3ccc(OCCCCCCCCCC)cc3)-c3cccc5cccc-2c35)-c2cccc3cccc-4c23)cc1
Result block: 536

----------
# test method notes: Light transmittance of optical filter (dye-containing acrylic adhesive sheet, 1000 ppm dye)
# Assay type: physicochemical
# experimental parameters: dye 1000 (wt)ppm in acrylic adhesive, 25 μm
Listed here: items and their measured Light Transmittance at 525 nm.
All answers are understood in %, so give the number only.

Here are 4 compounds together with their reported answers.
CCCCCCOc1ccc(C2=c3nc(c4c5cccc6cccc(c3=4)c65)C(c3ccc(OCCCCCC)cc3)=c3c4c(c5[n]3[Cu][n]3c2c2c(c3C(c3ccc(OCCCCCC)cc3)=c3nc(c6c7cccc8cccc(c3=6)c87)C=5c3ccc(OCCCCCC)cc3)-c3cccc5cccc-2c35)-c2cccc3cccc-4c23)cc1: 69.1
CCCCCCCCCCOc1ccc(C2=c3nc(c4c5ccc(Cl)c6c(Cl)ccc(c3=4)c65)C(c3ccc(OCCCCCCCCCC)cc3)=c3c4c(c5[n]3[Ni][n]3c2c2c(c3C(c3ccc(OCCCCCCCCCC)cc3)=c3nc(c6c7ccc(Cl)c8c(Cl)ccc(c3=6)c87)C=5c3ccc(OCCCCCCCCCC)cc3)-c3ccc(Cl)c5c(Cl)ccc-2c35)-c2ccc(Cl)c3c(Cl)ccc-4c23)cc1: 72.0
CC(C)(C)c1ccc(C2=c3nc(c4c5cccc6cccc(c3=4)c65)C(c3ccc(C(C)(C)C)cc3)=c3c4c(c5[n]3[Cu][n]3c2c2c(c3C(c3ccc(C(C)(C)C)cc3)=c3nc(c6c7cccc8cccc(c3=6)c87)C=5c3ccc(C(C)(C)C)cc3)-c3cccc5cccc-2c35)-c2cccc3cccc-4c23)cc1: 59.7
CCCCCOc1ccc(C2=c3nc(c4c5cccc6cccc(c3=4)c65)C(c3ccc(OCCCCC)cc3)=c3c4c(c5[n]3[Cu][n]3c2c2c(c3C(c3ccc(OCCCCC)cc3)=c3nc(c6c7cccc8cccc(c3=6)c87)C=5c3ccc(OCCCCC)cc3)-c3cccc5cccc-2c35)-c2cccc3cccc-4c23)cc1: 62.6

Then there is this compound:
Query block: Which Light Transmittance at 525 nm value is on record for CCCCCCCCCCOc1ccc(C2=c3nc(c4c5cccc6cccc(c3=4)c65)C(c3ccc(OCCCCCCCCCC)cc3)=c3c4c(c5[n]3[Ni][n]3c2c2c(c3C(c3ccc(OCCCCCCCCCC)cc3)=c3nc(c6c7cccc8cccc(c3=6)c87)C=5c3ccc(OCCCCCCCCCC)cc3)-c3cccc5cccc-2c35)-c2cccc3cccc-4c23)cc1 ?
Result block: 61.7
